experiment: molar heat capacity at constant pressure; details: 308.15 K; 100 kPa; Crystal; DSC
READOUT_LABEL: molar heat capacity at constant pressure (J/K/mol)

[[record]]
compound = "Nc1ccc2oc(-c3ccccc3)cc(=O)c2c1"
readout_label = "molar heat capacity at constant pressure"
experimental_value = 287.6

[[record]]
compound = "O=C(O)c1ccccc1"
readout_label = "molar heat capacity at constant pressure"
experimental_value = 149.6

[[record]]
compound = "c1ccc2cc3ccccc3cc2c1"
readout_label = "molar heat capacity at constant pressure"
experimental_value = 217.6

[[record]]
compound = "O=c1cc(-c2ccccc2)oc2cc(O)ccc12 [7-hydroxyflavone]"
readout_label = "molar heat capacity at constant pressure"
experimental_value = 263.4

[[record]]
compound = "O=c1cc(-c2ccccc2)oc2ccc(O)cc12 [6-hydroxyflavone]"
readout_label = "molar heat capacity at constant pressure"
experimental_value = 260.4

[[record]]
compound = "O=c1cc(-c2ccccc2)oc2cccc(O)c12 [5-hydroxyflavone]"
readout_label = "molar heat capacity at constant pressure"
experimental_value = 289.4

[[record]]
compound = "O=c1c(O)c(-c2ccccc2)oc2ccccc12 [3-hydroxyflavone]"
readout_label = "molar heat capacity at constant pressure"
experimental_value = 275.3

[[record]]
compound = "c1cc2ccc3cccc4ccc(c1)c2c34"
readout_label = "molar heat capacity at constant pressure"
experimental_value = 234.3


----------
experiment: molar heat capacity at constant pressure; conditions: 358.15 K; 100 kPa; Crystal; DSC
READOUT_LABEL: molar heat capacity at constant pressure (J/K/mol)

[[record]]
compound = "c1ccc2cc3ccccc3cc2c1"
experimental_value = 258.8

[[record]]
compound = "O=c1cc(-c2ccccc2)oc2cc(O)ccc12 [7-hydroxyflavone]"
experimental_value = 307.6

[[record]]
compound = "O=c1cc(-c2ccccc2)oc2ccc(O)cc12 [6-hydroxyflavone]"
experimental_value = 312.4

[[record]]
compound = "O=C(O)c1ccccc1"
experimental_value = 171.7

[[record]]
compound = "O=c1c(O)c(-c2ccccc2)oc2ccccc12 [3-hydroxyflavone]"
experimental_value = 310.8

[[record]]
compound = "c1cc2ccc3cccc4ccc(c1)c2c34"
experimental_value = 285.4

[[record]]
compound = "Nc1ccc2oc(-c3ccccc3)cc(=O)c2c1"
experimental_value = 333.6

[[record]]
compound = "O=c1cc(-c2ccccc2)oc2cccc(O)c12 [5-hydroxyflavone]"
experimental_value = 334.4


----------
Measured molar heat capacity at constant pressure of individual entries
experiment: molar heat capacity at constant pressure; settings: 348.15 K; 100 kPa; Crystal; DSC
± gives the expanded uncertainty stated by the source.
READOUT_LABEL: molar heat capacity at constant pressure

[[record]]
compound = "O=C(O)c1ccccc1 [benzoic acid]"
readout_label = "molar heat capacity at constant pressure"
experimental_value = "166.6 ± 8.3 J/K/mol"

[[record]]
compound = "c1ccc2cc3ccccc3cc2c1 [anthracene]"
readout_label = "molar heat capacity at constant pressure"
experimental_value = "250.7 ± 12 J/K/mol"

[[record]]
compound = "c1cc2ccc3cccc4ccc(c1)c2c34 [pyrene]"
readout_label = "molar heat capacity at constant pressure"
experimental_value = "274.1 ± 14 J/K/mol"

[[record]]
compound = "O=c1cc(-c2ccccc2)oc2ccc(O)cc12 [6-hydroxyflavone]"
readout_label = "molar heat capacity at constant pressure"
experimental_value = "302.4 ± 15 J/K/mol"

[[record]]
compound = "O=c1cc(-c2ccccc2)oc2cccc(O)c12 [5-hydroxyflavone]"
readout_label = "molar heat capacity at constant pressure"
experimental_value = "323.8 ± 16 J/K/mol"

[[record]]
compound = "O=c1cc(-c2ccccc2)oc2cc(O)ccc12 [7-hydroxyflavone]"
readout_label = "molar heat capacity at constant pressure"
experimental_value = "299.4 ± 15 J/K/mol"

[[record]]
compound = "O=c1c(O)c(-c2ccccc2)oc2ccccc12 [3-hydroxyflavone]"
readout_label = "molar heat capacity at constant pressure"
experimental_value = "303.2 ± 15 J/K/mol"

[[record]]
compound = "Nc1ccc2oc(-c3ccccc3)cc(=O)c2c1 [6-aminoflavone]"
readout_label = "molar heat capacity at constant pressure"
experimental_value = "324.5 ± 16 J/K/mol"


----------
Measured molar heat capacity at constant pressure of individual entries
assay: molar heat capacity at constant pressure; settings: 398.15 K; 100 kPa; Crystal; DSC
± gives the expanded uncertainty stated by the source.
READOUT_LABEL: molar heat capacity at constant pressure

[[record]]
molecule = "O=c1c(O)c(-c2ccccc2)oc2ccccc12 [3-hydroxyflavone]"
experimental_value = "346.8 ± 17 J/K/mol"

[[record]]
molecule = "O=c1cc(-c2ccccc2)oc2ccc(O)cc12 [6-hydroxyflavone]"
experimental_value = "348.9 ± 17 J/K/mol"

[[record]]
molecule = "O=c1cc(-c2ccccc2)oc2cc(O)ccc12 [7-hydroxyflavone]"
experimental_value = "340.1 ± 17 J/K/mol"

[[record]]
molecule = "Nc1ccc2oc(-c3ccccc3)cc(=O)c2c1 [6-aminoflavone]"
experimental_value = "367.2 ± 18 J/K/mol"


----------
Measured molar heat capacity at constant pressure of individual entries
experiment: molar heat capacity at constant pressure; details: 403.15 K; 100 kPa; Crystal; DSC
READOUT_LABEL: molar heat capacity at constant pressure (J/K/mol)

[[record]]
molecule = "O=c1cc(-c2ccccc2)oc2cc(O)ccc12 [7-hydroxyflavone]"
measurement_unit = "J/K/mol"
experimental_value = 343.3

[[record]]
molecule = "Nc1ccc2oc(-c3ccccc3)cc(=O)c2c1"
measurement_unit = "J/K/mol"
experimental_value = 371

[[record]]
molecule = "O=c1c(O)c(-c2ccccc2)oc2ccccc12 [3-hydroxyflavone]"
measurement_unit = "J/K/mol"
experimental_value = 351.6


----------
test: molar heat capacity at constant pressure; conditions: 388.15 K; 100 kPa; Crystal; DSC
Checkbox rule: molar heat capacity at constant pressure lower than 300 J/K/mol = 1.0; molar heat capacity at constant pressure not lower than 300 J/K/mol = 0.0.

[[record]]
molecule = "c1ccc2cc3ccccc3cc2c1 [anthracene]"
class_name = 1.0

[[record]]
molecule = "O=c1cc(-c2ccccc2)oc2cccc(O)c12 [5-hydroxyflavone]"
class_name = 0.0

[[record]]
molecule = "c1cc2ccc3cccc4ccc(c1)c2c34 [pyrene]"
class_name = 0.0

[[record]]
molecule = "Nc1ccc2oc(-c3ccccc3)cc(=O)c2c1 [6-aminoflavone]"
class_name = 0.0

[[record]]
molecule = "O=c1cc(-c2ccccc2)oc2cc(O)ccc12 [7-hydroxyflavone]"
class_name = 0.0

